Below, each of the compounds is paired with its reported Leakage (as %) after 1 week at 35° C. value.
# method description: Capsule perfume leakage in liquid fabric enhancer (LFE), headspace SPME GC/MS
# Format: physicochemical
# condition summary: PRM of Perfume 1 out of Example 2, Sample A capsules; LFE Composition 3 (Ester Quat 3)
Numeric only. Scale: %

CC(=O)OC1CCCCC1C(C)(C)C (stereo not drawn) [(2-tert-butylcyclohexyl) acetate] ... 1.3
CCC(C)CCCC(C)(C)O (stereo not drawn) [Tetrahydro myrcenol] ... 1.2
CC(=O)OC1CCC(C(C)(C)C)CC1 (stereo not drawn) [(4-tert-butylcyclohexyl) acetate] ... 0.7
CC(=O)O[C@@H]1C[C@H]2CC[C@]1(C)C2(C)C (racemic) [iso-Bornyl acetate] ... 1.0

Problem: Can you look up the measured Leakage (as %) after 1 week at 35° C. of `CC12CCC(CC1)C(C)(C)O2` for me?
Result: 2.0

Problem: Try this compound too: CC1=CC(C)C(C=O)CC1 (stereo not drawn)
Result: 1.6

Problem: Try this compound too: CCOC(=O)C(C)CC (stereo not drawn) [Ethyl 2-methyl butyrate]
Result: 2.2

Problem: Try this compound too: CC(=O)OC1CC2CC1C1CC=CC21 (stereo not drawn) [Verdyl acetate]
Result: 1.2

Problem: Try this compound too: CCC(C)(O)CCCC(C)C (stereo not drawn) [Tetrahydro linalool]
Result: 1.2

Ref: patent US12630785B2
